Molecular target: Aβ42-T7n (UniProt P00573+P05067)
Sequence (P05067+P00573 fused): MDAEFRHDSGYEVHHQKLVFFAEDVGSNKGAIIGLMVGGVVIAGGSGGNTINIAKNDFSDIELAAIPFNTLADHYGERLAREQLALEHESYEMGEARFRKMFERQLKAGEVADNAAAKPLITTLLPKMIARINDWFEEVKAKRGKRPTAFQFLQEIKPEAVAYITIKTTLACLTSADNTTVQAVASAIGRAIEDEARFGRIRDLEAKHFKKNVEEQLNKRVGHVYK
Conditions: subsequent negative selection against Aβ42, high-throughput sequencing
Labelling field: enter 1 if recorded Rank (negative selection) is less than 8. Enter -1 if it equals or exceeds that cut-off.

CDLGVFR (cyclised; Circular) [cyclo-CDLGVFR]; 1
CLNYFHG; 1
CYILSIG; -1
CISCHYG; -1
CFNLVVD; 1
CCHSFFR; -1
CGIRSLG; 1
CRCVFSG (cyclised; Circular) [cyclo-CRCVFSG]; 1

* * *

Target: hIAPP-T7n (UniProt P00573+P10997)
Sequence (P10997+P00573 fused): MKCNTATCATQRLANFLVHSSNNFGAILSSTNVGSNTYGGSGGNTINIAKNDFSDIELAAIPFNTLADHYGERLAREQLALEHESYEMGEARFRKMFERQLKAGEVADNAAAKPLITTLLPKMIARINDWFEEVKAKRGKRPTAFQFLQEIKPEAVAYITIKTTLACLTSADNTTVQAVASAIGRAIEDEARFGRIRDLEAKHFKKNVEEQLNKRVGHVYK
Settings: top enriched sequences, positive selection on hIAPP, high-throughput sequencing
READOUT NAME: Rank (positive selection)

CIYFHHH; 9
CFFRGSD; 18
CGIRSLG; 7
CNRLDVS; 26
CCHSFFR; 6
CFNLVVD; 15
CRCVFSG (cyclised; Circular) [cyclo-CRCVFSG]; 20

* * *

Biological target: Aβ42-T7n (UniProt P00573+P05067)
Details: percent reads negative vs. positive selection
Excerpt: To create a negative selection, we placed gIII-neg, a dominant-negative form of gIII,^44 under PT7 in our selection circuit. Inhibition of a non-target APP (ex. Aβ42) triggers pIII-neg expression and poisons phage proliferation. […] Sample preparation. […] The final PCR product was purified, and the concentration measured by Nanodrop. […] High-throughput sequencing and data analysis. […] Sequencing reads were demultiplexed by UWBC and analyzed using custom-written Python scripts.
Labelling field: enter T if recorded Fold enrichment in negative vs. positive selection is less than 4. Enter F if it equals or exceeds that cut-off.

CCHSFFR; T
CVSYILL; F
CLNYFHG; F
CYILSIG; T
CGLGHGN; F
CRCVFSG (cyclised; Circular) [cyclo-CRCVFSG]; F
CGIRSLG; F
CCGLYNI; T
CIYFHHH; F
CHVVGVI (cyclised; Circular) [cyclo-CHVVGVI]; T
CISCHYG; T
CFFRGSD; F
CHVHSYL; T
CFNLVVD; F
CNRLDVS; F
CDLGVFR (cyclised; Circular) [cyclo-CDLGVFR]; F

* * *

Target: Aβ42-T7n (UniProt P00573+P05067)
Conditions: subsequent negative selection against Aβ42, high-throughput sequencing
READOUT NAME: Percent total reads (negative selection) (%)

CRCVFSG (cyclised; Circular) [cyclo-CRCVFSG]; 24.55
CISCHYG; 0.12
CIYFHHH; 3.33
CGLGHGN; 1.12
CLNYFHG; 7.05
CCGLYNI; 0.15
CCHSFFR; 0.83
CFNLVVD; 4.85
CDLGVFR (cyclised; Circular) [cyclo-CDLGVFR]; 31.22
CHVVGVI (cyclised; Circular) [cyclo-CHVVGVI]; 0.29
CNRLDVS; 1.84
CVSYILL; 0.45
CYILSIG; 0.37
CGIRSLG; 4.48
CFFRGSD; 4.73
CHVHSYL; 6.03

* * *

Target: Aβ42-T7n (UniProt P00573+P05067)
Details: subsequent negative selection against Aβ42, high-throughput sequencing
Reported Rank (negative selection) values follow for various substances
READOUT NAME: Rank (negative selection)

CCGLYNI; 31
CGLGHGN; 10
CVSYILL; 16
CFFRGSD; 6
CHVVGVI (cyclised; Circular) [cyclo-CHVVGVI]; 20
CHVHSYL; 4
CNRLDVS; 9

* * *

Biological target: hIAPP-T7n (UniProt P00573+P10997)
Details: top enriched sequences, positive selection on hIAPP, high-throughput sequencing
READOUT NAME: Rank (positive selection)

CHVVGVI (cyclised; Circular) [cyclo-CHVVGVI]; 1
CCGLYNI; 5
CYILSIG; 4
CVSYILL; 10
CHVHSYL; 2
CISCHYG; 8
CLNYFHG; 3
CDLGVFR (cyclised; Circular) [cyclo-CDLGVFR]; 14
CGLGHGN; 53

Source: patent US20250122242A1
